Test system: 782815-120-R-J1-PDC complex spheroid viability
ASSAY_NAME: Anticancer human tumor 782815-120-R-J1-PDC patient-derived colon adenocarcinoma cell line growth inhibition [RAS]
MEASUREMENT_CONTEXT: second compound 0.003 µM; first compound 0.3 µM; active compounds read low
Assign viability, T/C to each entry below.
Numbers only here, please. The scale is %.

Which viability, T/C reading was recorded for the compound CCc1c2c(nc3ccc(O)cc13)-c1cc3c(c(=O)n1C2)COC(=O)[C@]3(O)CC + CCn1c(-c2cc(N3CCN(C)CC3)cnc2C(C)OC)c2c3cc(ccc31)-c1csc(n1)CC(NC(=O)C1CC1C)C(=O)N1CCCC(N1)C(=O)OCC(C)(C)C2 ?
1.89

# get_value(readout='viability, T/C', item= CCc1c2c(nc3ccc(O)cc13)-c1cc3c(c(=O)n1C2)COC(=O)[C@]3(O)CC + CCn1c(-c2cccnc2C(C)OC)c2c3cc(ccc31)N1CCOC(CC(NC(=O)C(C(C)C)N(C)C(=O)C3(F)CCN(C(=O)C#CC(C)(C)N(C)C)CC3)C(=O)N3CCCC(N3)C(=O)OCC(C)(C)C2)C1 )
1.63

viability, T/C lookup needed for CC1(C)CCC(Nc2ncc(C(F)(F)F)c(-c3c[nH]c4c(P(C)(C)=O)c(C#N)ccc34)n2)CN1 (centres undefined) + CCn1c(-c2cccnc2C(C)OC)c2c3cc(ccc31)N1CCOC(CC(NC(=O)C(C(C)C)N(C)C(=O)C3(F)CCN(C(=O)C#CC(C)(C)N(C)C)CC3)C(=O)N3CCCC(N3)C(=O)OCC(C)(C)C2)C1 , thanks.
44.3

Request the reported viability, T/C associated with CC1(C)CCC(Nc2ncc(C(F)(F)F)c(-c3c[nH]c4c(P(C)(C)=O)c(C#N)ccc34)n2)CN1 (centres undefined) + CCn1c(-c2cc(N3CCN(C)CC3)cnc2C(C)OC)c2c3cc(ccc31)-c1csc(n1)CC(NC(=O)C1CC1C)C(=O)N1CCCC(N1)C(=O)OCC(C)(C)C2
34.2

###

System: 782815-120-R-J1-PDC complex spheroid viability
ASSAY_NAME: Anticancer human tumor 782815-120-R-J1-PDC cell line growth inhibition [RAS];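 note: spheroids exposed to compounds for 7 days before reading; 100% = DMSO vehicle control viability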
MEASUREMENT_CONTEXT: second compound 0.1 µM; first compound 10 µM; active compounds read low
Source text: RAS pathway inhibitors in Combinations in Complex Spheroids A high-throughput screen of multi-cell type tumor spheroids was designed to identify active combinations of RAS pathway inhibitors and targeted small molecules. Complex spheroids include a stromal component modeled by human endothelial cells (HUVEC) and fibroblasts modeled by human mesenchymal stem cells (MSCs). […] Compounds. […] If the clinical Cmax for an agent had not been determined, the highest concentration tested was 10 microM. […]
VALUE_TYPE: viability, T/C (%)
// note: answer is a bare numeric in %

Give the measured viability, T/C of CC(=O)OC12COC1CC(O)C1(C)C(=O)C(O)C3=C(C)C(OC(=O)C(O)C(NC(=O)OC(C)(C)C)c4ccccc4)CC(O)(C(OC(=O)c4ccccc4)C21)C3(C)C (stereo unspecified) + C#Cc1c(F)ccc2cc(O)cc(-c3ncc4c(N5CC6CCC(C5)N6)nc(OCC56CCCN5CC(F)C6)nc4c3F)c12 .
31

Given Cc1nc(N2CCC3(CC2)COC(C)C3N)c(CO)nc1Sc1ccnc(N)c1Cl (stereo unspecified) + C=CC(=O)N1CCN(c2nc(OCC3CCCN3C)nc3c(F)c(-c4nc(N)cc(C)c4C(F)(F)F)c(Cl)cc23)C(C)C1 , state its recorded viability, T/C.
97.9

Quick check: viability, T/C of C[C@@H](NC(=O)c1ncnc(N)c1Cl)c1ncc(C(=O)Nc2cc(C(F)(F)F)c(Cl)cn2)s1 + C=CC(=O)N1CCN(c2nc(OCC3CCCN3C)nc3c(F)c(-c4nc(N)cc(C)c4C(F)(F)F)c(Cl)cc23)C(C)C1 ?
66.3

Returns the measured viability, T/C for the input compound. Input: CCC(CC)c1cc(NC2CCC(N)C2)n2nccc2n1 (stereo unspecified) + C=CC(=O)N1CCN(c2nc(OCC3CCCN3C)nc3c(F)c(-c4nc(N)cc(C)c4C(F)(F)F)c(Cl)cc23)C(C)C1
1.7

Could you tell me which viability, T/C is on file for Cc1nc(N2CCC3(CC2)COC(C)C3N)c(CO)nc1Sc1ccnc(N)c1Cl (stereo unspecified) + C#Cc1c(F)ccc2cc(O)cc(-c3ncc4c(N5CC6CCC(C5)N6)nc(OCC56CCCN5CC(F)C6)nc4c3F)c12 ?
98.7

GET /values?readout=viability, T/C&item= CC1(O)CCCC1n1c(=O)c(C(F)F)cc2cnc(NC3CCN(S(C)(=O)=O)CC3)nc21 (stereo unspecified) + C=CC(=O)N1CCN(c2nc(OCC3CCCN3C)nc3c(F)c(-c4nc(N)cc(C)c4C(F)(F)F)c(Cl)cc23)C(C)C1
18.6

###

Tested on: 782815-120-R-J1-PDC complex spheroid viability
ASSAY_NAME: Anticancer human tumor 782815-120-R-J1-PDC cell line growth inhibition [RAS];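 note: spheroids exposed to compounds for 7 days before reading; 100% = DMSO vehicle control viability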
MEASUREMENT_CONTEXT: second compound 3.16 µM; first compound 0.1 µM; active compounds read low
Kindly state viability, T/C for each of the entries shown.
# output: bare number, implied unit %

Report viability, T/C for C=CC(=O)Nc1cc(Nc2nccc(-c3cn(C)c4ccccc34)n2)c(OC)cc1N(C)CCN(C)C + C#Cc1c(F)ccc2cc(O)cc(-c3ncc4c(N5CC6CCC(C5)N6)nc(OCC56CCCN5CC(F)C6)nc4c3F)c12 please.
94.4

Would you mind telling me what viability, T/C value was observed for CCC(CC)c1cc(NC2CCC(N)C2)n2nccc2n1 (stereo not given) + C#Cc1c(F)ccc2cc(O)cc(-c3ncc4c(N5CC6CCC(C5)N6)nc(OCC56CCCN5CC(F)C6)nc4c3F)c12 ?
95

I am curious: what viability, T/C value has been reported for CC(C)n1nc(-c2ccc3oc(N)nc3c2)c2c(N)ncnc21 + C#Cc1c(F)ccc2cc(O)cc(-c3ncc4c(N5CC6CCC(C5)N6)nc(OCC56CCCN5CC(F)C6)nc4c3F)c12 ?
84.4

I would be grateful if you could share the reported viability, T/C for CC1(O)CCCC1n1c(=O)c(C(F)F)cc2cnc(NC3CCN(S(C)(=O)=O)CC3)nc21 (stereo not given) + C#Cc1c(F)ccc2cc(O)cc(-c3ncc4c(N5CC6CCC(C5)N6)nc(OCC56CCCN5CC(F)C6)nc4c3F)c12 .
67.4

Look up viability, T/C: CCN1CCN(Cc2ccc(Nc3ncc(F)c(-c4cc(F)c5nc(C)n(C(C)C)c5c4)n3)nc2)CC1 + C#Cc1c(F)ccc2cc(O)cc(-c3ncc4c(N5CC6CCC(C5)N6)nc(OCC56CCCN5CC(F)C6)nc4c3F)c12
104

###

Tested on: 782815-120-R-J1-PDC complex spheroid viability
ASSAY_NAME: Anticancer human tumor 782815-120-R-J1-PDC cell line growth inhibition [RAS];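 note: spheroids exposed to compounds for 7 days before reading; 100% = DMSO vehicle control viability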
MEASUREMENT_CONTEXT: second compound 0.0316 µM; first compound 0.0316 µM; active compounds read low
Excerpt: RAS pathway inhibitors in Combinations in Complex Spheroids A high-throughput screen of multi-cell type tumor spheroids was designed to identify active combinations of RAS pathway inhibitors and targeted small molecules. Complex spheroids include a stromal component modeled by human endothelial cells (HUVEC) and fibroblasts modeled by human mesenchymal stem cells (MSCs). […] Compounds. […] If the clinical Cmax for an agent had not been determined, the highest concentration tested was 10 microM. […]
Provide the reported viability, T/C of each item.
Return type: number; implicit unit %.

Find the recorded viability, T/C belonging to CC(=O)OC12COC1CC(O)C1(C)C(=O)C(O)C3=C(C)C(OC(=O)C(O)C(NC(=O)OC(C)(C)C)c4ccccc4)CC(O)(C(OC(=O)c4ccccc4)C21)C3(C)C (centres undefined) + C=CC(=O)N1CCN(c2nc(OCC3CCCN3C)nc3c(F)c(-c4nc(N)cc(C)c4C(F)(F)F)c(Cl)cc23)C(C)C1 and report it.
40

Given the entry CC1(O)CCCC1n1c(=O)c(C(F)F)cc2cnc(NC3CCN(S(C)(=O)=O)CC3)nc21 (centres undefined) + C#Cc1c(F)ccc2cc(O)cc(-c3ncc4c(N5CC6CCC(C5)N6)nc(OCC56CCCN5CC(F)C6)nc4c3F)c12 , report its measured viability, T/C.
73.7

Requested field: viability, T/C. Item: CC(C)n1nc(-c2ccc3oc(N)nc3c2)c2c(N)ncnc21 + C=CC(=O)N1CCN(c2nc(OCC3CCCN3C)nc3c(F)c(-c4nc(N)cc(C)c4C(F)(F)F)c(Cl)cc23)C(C)C1
92.2

// lookup viability, T/C for CCN1CCN(Cc2ccc(Nc3ncc(F)c(-c4cc(F)c5nc(C)n(C(C)C)c5c4)n3)nc2)CC1 + C=CC(=O)N1CCN(c2nc(OCC3CCCN3C)nc3c(F)c(-c4nc(N)cc(C)c4C(F)(F)F)c(Cl)cc23)C(C)C1
99.5
